target: human GPR17 receptor (Homo sapiens); assay: Calcium mobilization functional assay (Fluo-8, FLIPR TETRA) in HEK-293 hGPR17 (Gα-q assay); settings: antagonism of MDL29,951 (~EC80) induced Ca2+ signal; cell line (HEK-293 hGPR17 or HEK-293 Suchi5 hGPR17) not given
Sequence (Q13304 whole entry): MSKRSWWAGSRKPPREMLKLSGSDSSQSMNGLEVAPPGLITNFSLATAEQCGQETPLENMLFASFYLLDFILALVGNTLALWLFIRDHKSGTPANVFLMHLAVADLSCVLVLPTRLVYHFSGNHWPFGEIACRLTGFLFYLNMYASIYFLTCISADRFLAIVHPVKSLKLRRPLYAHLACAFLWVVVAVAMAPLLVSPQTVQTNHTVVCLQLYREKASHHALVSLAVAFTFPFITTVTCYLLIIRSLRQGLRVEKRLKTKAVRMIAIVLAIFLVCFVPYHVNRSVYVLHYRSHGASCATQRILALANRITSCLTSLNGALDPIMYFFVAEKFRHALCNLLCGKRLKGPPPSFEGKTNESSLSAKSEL
pIC50: −log10 of the molar value.
measurement_kind: pIC50

smiles_entry=CC(C)Oc1cccc(Cc2c[nH]cc2S(=O)(=O)Nc2ccc(C#N)cc2F)c1 measurement_kind=pIC50 result="5.30 to 6.30"
smiles_entry=N#Cc1ccc(NS(=O)(=O)c2c[nH]c(-c3cccc(Cl)c3F)c2)c(F)c1 measurement_kind=pIC50 result="> 6.30"
smiles_entry=N#Cc1ccc(NS(=O)(=O)c2c[nH]cc2CC2CCCCC2)c(F)c1 measurement_kind=pIC50 result="5.30 to 6.30"
smiles_entry=COc1nccc(F)c1-c1cc(S(=O)(=O)Nc2ccc(Cl)cc2F)c[nH]1 measurement_kind=pIC50 result="5.30 to 6.30"
smiles_entry=Cc1cc(NS(=O)(=O)c2c[nH]c(-c3ccccc3F)c2)c(F)cc1C#N measurement_kind=pIC50 result="> 6.30"
smiles_entry=O=S(=O)(Nc1ccc(C(F)(F)F)c(F)c1)c1c[nH]c(-c2ccccn2)c1 measurement_kind=pIC50 result="5.30 to 6.30"
smiles_entry=O=S(=O)(Nc1cc(F)c(Br)cc1F)c1c[nH]c(-c2cccc3cccnc23)c1 measurement_kind=pIC50 result="5.30 to 6.30"
smiles_entry=Cc1cc(NS(=O)(=O)c2c[nH]c(-c3ccccn3)c2)c(F)cc1C(F)(F)F measurement_kind=pIC50 result="5.30 to 6.30"
smiles_entry=Cc1cc(Cl)ccc1-c1cc(S(=O)(=O)Nc2ccc(C#N)cc2F)c[nH]1 measurement_kind=pIC50 result="5.30 to 6.30"
smiles_entry=O=S(=O)(Nc1ncc(Cl)cc1F)c1c[nH]cc1Cc1ccccc1 measurement_kind=pIC50 result="4.30 to 5.30"
smiles_entry=COc1cc(C#N)ccc1NS(=O)(=O)c1c[nH]c(-c2ccccc2)c1 measurement_kind=pIC50 result="5.30 to 6.30"
smiles_entry=N#Cc1ccc(NS(=O)(=O)c2c[nH]c(C3CCCC3)c2)c(F)c1 measurement_kind=pIC50 result="5.30 to 6.30"
smiles_entry=Cc1cccc(-c2cc(S(=O)(=O)Nc3ccc(C#N)cc3F)c[nH]2)n1 measurement_kind=pIC50 result="> 6.30"
smiles_entry=COc1cccc(-c2cc(S(=O)(=O)Nc3cc(F)c(C(F)(F)F)cc3F)c[nH]2)n1 measurement_kind=pIC50 result="> 6.30"
smiles_entry=N#Cc1cc(F)c(NS(=O)(=O)c2c[nH]cc2Cc2cccs2)cc1F measurement_kind=pIC50 result="> 6.30"
smiles_entry=O=S(=O)(Nc1cc(F)c(OC(F)F)cc1F)c1c[nH]c(-c2ccc(F)cc2)c1 measurement_kind=pIC50 result="5.30 to 6.30"
smiles_entry=O=S(=O)(Nc1cc(F)c(C(F)(F)F)cc1F)c1c[nH]c(-c2ccsn2)c1 measurement_kind=pIC50 result="> 6.30"
smiles_entry=N#Cc1ccc(NS(=O)(=O)c2c[nH]c(-c3cccc(F)c3F)c2)c(F)c1 measurement_kind=pIC50 result="> 6.30"
smiles_entry=COc1cc(F)c(NS(=O)(=O)c2c[nH]c(-c3ccccn3)c2)cc1F measurement_kind=pIC50 result="5.30 to 6.30"
smiles_entry=N#Cc1ccc(NS(=O)(=O)c2c[nH]c(-c3ccncc3F)c2)c(F)c1 measurement_kind=pIC50 result="5.30 to 6.30"
smiles_entry=N#Cc1cc(F)c(NS(=O)(=O)c2c[nH]c(-c3c(F)cc(F)cc3F)c2)cc1F measurement_kind=pIC50 result="> 6.30"
smiles_entry=N#Cc1cc(F)c(NS(=O)(=O)c2c[nH]c(-c3ccc(F)c(Cl)c3)c2)cc1F measurement_kind=pIC50 result="5.30 to 6.30"
smiles_entry=N#Cc1cc(F)c(NS(=O)(=O)c2c[nH]c(-c3ccccc3)c2)cc1F measurement_kind=pIC50 result="> 6.30"
smiles_entry=N#Cc1ccc(NS(=O)(=O)c2c[nH]c(-c3ccc(Cl)c(F)c3)c2)c(F)c1 measurement_kind=pIC50 result="5.30 to 6.30"
smiles_entry=N#Cc1ccc(NS(=O)(=O)c2c[nH]c(-c3cccc(C(F)(F)F)c3)c2)c(F)c1 measurement_kind=pIC50 result="5.30 to 6.30"
smiles_entry=O=S(=O)(Nc1ccc(OC(F)F)nc1)c1c[nH]c(-c2ccccc2)c1 measurement_kind=pIC50 result="5.30 to 6.30"
smiles_entry=Cc1csc(-c2cc(S(=O)(=O)Nc3cc(F)c(OC(F)F)cc3F)c[nH]2)n1 measurement_kind=pIC50 result="> 6.30"
smiles_entry=N#Cc1ccc(NS(=O)(=O)c2c[nH]cc2Cc2cccc(F)c2)c(F)c1 measurement_kind=pIC50 result="> 6.30"
smiles_entry=COc1cc(NS(=O)(=O)c2c[nH]c(-c3ccccc3F)c2)ccc1C#N measurement_kind=pIC50 result="5.30 to 6.30"
smiles_entry=CC1(C)CC(c2cc(S(=O)(=O)Nc3cc(F)c(C(F)(F)F)cc3F)c[nH]2)C1 measurement_kind=pIC50 result="4.30 to 5.30"
smiles_entry=N#CCOc1cc(F)c(NS(=O)(=O)c2c[nH]c(-c3ccccc3)c2)cc1F measurement_kind=pIC50 result="> 6.30"
smiles_entry=N#Cc1ccc(NS(=O)(=O)c2c[nH]c(-c3cccs3)c2)c(F)c1 measurement_kind=pIC50 result="> 6.30"
smiles_entry=O=S(=O)(Nc1cc(F)c(F)cc1F)c1c[nH]c(-c2cccc(F)c2)c1 measurement_kind=pIC50 result="5.30 to 6.30"
smiles_entry=Cc1ccc(NS(=O)(=O)c2c[nH]c(-c3ccccc3)c2)c(Cl)n1 measurement_kind=pIC50 result="4.30 to 5.30"
smiles_entry=CC(=O)c1cccc(Cc2c[nH]cc2S(=O)(=O)Nc2ccc(C#N)cc2F)c1 measurement_kind=pIC50 result="4.30 to 5.30"
smiles_entry=N#Cc1ccc(NS(=O)(=O)c2c[nH]c(-c3ncccc3F)c2)c(F)c1 measurement_kind=pIC50 result="> 6.30"
